test system: Calu-1; assay: Cytotoxicity against human Calu1 cells at 10 uM after 48 hrs by WST-1 assay; type: functional
endpoint.name: Activity (%)

molecule: CCOC(=O)CC(=O)c1cn(C(=O)OC(C)(C)C)c2ccccc12
uom: %
data.value: 20
//
molecule: CCOC(=O)CC(=O)c1cc2ccccc2cn1
uom: %
data.value: 21
//
molecule: CCOC(=O)CC(=O)c1cnccn1
uom: %
data.value: 16
//
molecule: CCOC(=O)CC(=O)c1ncccn1
uom: %
data.value: 17
//
molecule: CCOC(=O)CC(=O)c1cnc2ccccc2c1
uom: %
data.value: 23
//
molecule: CCOC(=O)CC(=O)c1ccncn1
uom: %
data.value: 12
//
molecule: CCOC(=O)C(C)C(=O)c1nccc2ccccc12 (centres undefined)
uom: %
data.value: 20
//
molecule: CCOC(=O)CC(=O)c1ccccn1
uom: %
data.value: 22
//
molecule: CCOC(=O)CC(=O)c1ccncc1
uom: %
data.value: 12
//
molecule: CCOC(=O)CC(=O)c1nccn1CCOC
uom: %
data.value: 24
//
molecule: CCOC(=O)C(C)C(=O)c1cnccn1 (centres undefined)
uom: %
data.value: 85.3
//
molecule: CCOC(=O)CC(=O)c1nccc2ccccc12
uom: %
data.value: 30
//
molecule: CCOC(=O)CC(=O)c1nccn1C
uom: %
data.value: 30
//
molecule: CCOC(=O)CC(=O)c1sc(Cl)nc1C
uom: %
data.value: 32
